IC50 values for Dipeptidyl peptidase 4 (Homo sapiens, UniProt P27487), compiled from several publications.

A selection of reference data follows.
1. N[C@H]1C[C@@H](N2CC3=C(CN(C(=O)C(F)(F)F)C3)C2)CO[C@@H]1c1cc(F)ccc1F : < 0.01 µM
2. N[C@@H](CC(=O)N1CCn2c(C(F)(F)F)nc(C(=O)O)c2C1)Cc1cc(F)c(F)cc1F.O=C(O)C[C@H](O)C(=O)O : 0.009 µM
3. COc1ccc(Oc2cccc(-c3c(CN)c(NCc4ccc5ccccc5c4)nc4c3c(=O)n(C)c(=O)n4C)c2)cc1 : 10 to 100 µM
4. CC(C)=CCC/C(C)=C/CCC1=C[C@@H](c2ccc3ccccc3c2)OC1=O : 13.6 µM
5. CO[C@H]1C[C@@H]2C[C@@](C)(NCC(=O)N3CCC[C@H]3C#N)C[C@@H]2C1 : 0.00243 µM
6. COCOc1ccccc1[C@@H]1C=C(CC/C=C(\C)CCC=C(C)C)C(=O)O1 : 14.4 µM

API: the following record is the query input.
### Prompt State, in one line, measured IC50 of `N[C@H]1C[C@@H](N2CC3=C(C2)CN(S(=O)(=O)c2ccc(F)cc2F)C3)CO[C@@H]1c1cc(F)ccc1F`
### Response < 0.01 µM
